Measured On: UniProtKB Q9H9B1
Sequence (Q9H9B1 whole entry, species assumed): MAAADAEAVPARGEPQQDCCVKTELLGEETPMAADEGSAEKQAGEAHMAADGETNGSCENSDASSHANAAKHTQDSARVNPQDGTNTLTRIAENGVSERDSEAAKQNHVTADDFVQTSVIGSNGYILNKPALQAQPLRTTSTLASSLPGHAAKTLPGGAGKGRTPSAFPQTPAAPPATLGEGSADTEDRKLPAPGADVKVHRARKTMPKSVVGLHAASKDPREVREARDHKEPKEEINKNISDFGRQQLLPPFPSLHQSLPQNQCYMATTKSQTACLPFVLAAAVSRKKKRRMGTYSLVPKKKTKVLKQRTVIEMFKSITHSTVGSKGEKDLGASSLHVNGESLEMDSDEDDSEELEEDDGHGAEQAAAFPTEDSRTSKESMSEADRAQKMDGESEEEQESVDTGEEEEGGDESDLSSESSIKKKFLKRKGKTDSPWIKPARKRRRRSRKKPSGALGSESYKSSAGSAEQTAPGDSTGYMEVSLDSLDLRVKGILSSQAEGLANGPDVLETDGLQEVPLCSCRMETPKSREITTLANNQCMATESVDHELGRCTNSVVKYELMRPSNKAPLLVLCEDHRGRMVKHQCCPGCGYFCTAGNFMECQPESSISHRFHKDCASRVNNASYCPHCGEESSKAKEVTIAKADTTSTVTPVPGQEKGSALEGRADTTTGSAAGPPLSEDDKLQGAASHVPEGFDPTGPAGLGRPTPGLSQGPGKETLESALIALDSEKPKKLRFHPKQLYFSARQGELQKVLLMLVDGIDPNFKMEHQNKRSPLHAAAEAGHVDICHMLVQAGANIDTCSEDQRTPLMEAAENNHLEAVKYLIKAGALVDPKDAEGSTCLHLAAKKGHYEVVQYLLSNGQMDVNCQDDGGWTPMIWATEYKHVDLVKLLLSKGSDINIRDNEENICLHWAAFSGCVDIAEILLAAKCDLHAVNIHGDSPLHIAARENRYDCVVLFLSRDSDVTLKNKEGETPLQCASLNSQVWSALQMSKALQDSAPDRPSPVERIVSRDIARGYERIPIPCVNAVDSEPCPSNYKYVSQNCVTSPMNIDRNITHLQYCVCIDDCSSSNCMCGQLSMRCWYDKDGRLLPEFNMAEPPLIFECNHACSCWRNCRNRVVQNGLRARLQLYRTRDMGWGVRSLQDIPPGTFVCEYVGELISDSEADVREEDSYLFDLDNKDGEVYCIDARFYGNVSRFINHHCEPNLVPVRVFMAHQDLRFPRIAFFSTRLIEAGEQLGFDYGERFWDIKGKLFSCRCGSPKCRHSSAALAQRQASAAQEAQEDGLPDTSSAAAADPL
Method: EHMT1 enzyme assay on peptide substrate (EHMT1 PEP)
Type: biochemical
Reported Conditions: read-out: EHMT1 PEP (IC50 μM)
Examples of molecules with documented IC50 follow.
Result Type: IC50

- Molecule: "CNc1cc(C)nc(Nc2ccc(OC)c(OC[C@H]3C[C@H](N(C)C)C3)c2)n1"
  Result: "1 to 10 µM"
- Molecule: "CNc1cc(C)nc(Nc2ccc(OC)c(OCCCN3CC4CC4C3)c2)n1 (centres unmarked)"
  Result: "< 0.1 µM"
- Molecule: "COc1cc2c(C3CCN(C)CC3)nc(N3CCCC3)nc2cc1OCCCN1CCCC1"
  Result: "< 0.1 µM"
- Molecule: "COc1cnc(Nc2ccnc3[nH]ncc23)cc1OCCCN1CCCC1"
  Result: "1 to 10 µM"
- Molecule: "COc1ccc(Nc2nc(C)cc(NCC3CCOCC3)n2)cc1OCCCN1CCCC1"
  Result: "< 0.1 µM"
- Molecule: "CNc1cc(C)nc(Nc2ccc(OC)c(OCC3CN(C4CCC4)C3)c2)n1"
  Result: "< 0.1 µM"
- Molecule: "CNc1cc(C)nc(Nc2ccc(OC)c(OC[C@@H]3CCN(C4CC4)C3)c2)n1 (single isomer, unassigned)"
  Result: "< 0.1 µM"
- Molecule: "CCCCN1CCC(C)(Nc2nccc(NC)n2)CC1"
  Result: "> 10 µM"
